Test: Solubility studies of fulvestrant in solvents, co-solvents, oils and release rate modifiers
Format: physicochemical
Settings: TCLS-101 (DMI), organic solvent or mixture, TCLS-101 (DMI); read-out: Fulvestrant solubility achieved
assay metric: solubility (mg/mL)
The response must be a number in mg/mL with no trailing unit.

Q: Request the reported solubility associated with C[C@]12CC[C@@H]3c4ccc(O)cc4C[C@@H](CCCCCCCCC[S+]([O-])CCCC(F)(F)C(F)(F)F)[C@H]3[C@@H]1CC[C@@H]2O (stereo partly shown) [Fulvestrant]
Result: 30.8

====

Test: Solubility studies of fulvestrant in solvents, co-solvents, oils and release rate modifiers
Format: physicochemical
Details: organic solvent or mixture, Benzyl alcohol (2 v/v %):MCT oil (1 v/v %):Diethylene glycol monoethyl ether (q.s. to 1 mL); read-out: Fulvestrant solubility achieved
assay metric: solubility (mg/mL)
The response must be a number in mg/mL with no trailing unit.

Q: Request the reported solubility associated with C[C@]12CC[C@@H]3c4ccc(O)cc4C[C@@H](CCCCCCCCC[S+]([O-])CCCC(F)(F)C(F)(F)F)[C@H]3[C@@H]1CC[C@@H]2O (stereo partly shown)
Result: 200

====

Assay: Solubility studies of fulvestrant in solvents, co-solvents, oils and release rate modifiers
Type: physicochemical
Settings: organic solvent or mixture, Benzyl alcohol (5 v/v %):Diethylene glycol monoethyl ether (q.s. to 3.3 mL); read-out: Fulvestrant solubility achieved
assay metric: solubility
# output: number + unit

Q: Request the reported solubility associated with C[C@]12CC[C@@H]3c4ccc(O)cc4C[C@@H](CCCCCCCCC[S+]([O-])CCCC(F)(F)C(F)(F)F)[C@H]3[C@@H]1CC[C@@H]2O (stereo partly shown) [Fulvestrant]
Result: 151 mg/mL

====

Assay: Solubility studies of fulvestrant in solvents, co-solvents, oils and release rate modifiers
Assay type: physicochemical
Conditions: oil or lipid, Benzyl alcohol (4 v/v %):Benzyl benzoate (10 w/v %):Castor oil (50 v/v %):Diethylene glycol monoethyl ether (q.s. to 1 mL); read-out: Fulvestrant solubility achieved
assay metric: solubility (mg/mL)
The response must be a number in mg/mL with no trailing unit.

Q: Request the reported solubility associated with C[C@]12CC[C@@H]3c4ccc(O)cc4C[C@@H](CCCCCCCCC[S+]([O-])CCCC(F)(F)C(F)(F)F)[C@H]3[C@@H]1CC[C@@H]2O (stereo partly shown) [Fulvestrant]
Result: 56

====

Assay: Solubility studies of fulvestrant in solvents, co-solvents, oils and release rate modifiers
Assay type: physicochemical
Conditions: organic solvent or mixture, Benzyl alcohol (4 v/v %):Diethylene glycol monoethyl ether (q.s. to 1.7 mL); read-out: Fulvestrant solubility achieved
Method: Solubility studies of fulvestrant were performed using various combinations of solvent, co-solvents, oils and release rate modifiers. The resultant data are shown herein below Table 1.
assay metric: solubility (mg/mL)
The response must be a number in mg/mL with no trailing unit.

Q: Request the reported solubility associated with C[C@]12CC[C@@H]3c4ccc(O)cc4C[C@@H](CCCCCCCCC[S+]([O-])CCCC(F)(F)C(F)(F)F)[C@H]3[C@@H]1CC[C@@H]2O (stereo partly shown)
Result: 176

====

Test: Solubility studies of fulvestrant in solvents, co-solvents, oils and release rate modifiers
Assay type: physicochemical
Settings: Polyethylene Glycol 400, organic solvent or mixture, Polyethylene Glycol 400; read-out: Fulvestrant solubility achieved
assay metric: solubility (mg/mL)
The response must be a number in mg/mL with no trailing unit.

Q: Request the reported solubility associated with C[C@]12CC[C@@H]3c4ccc(O)cc4C[C@@H](CCCCCCCCC[S+]([O-])CCCC(F)(F)C(F)(F)F)[C@H]3[C@@H]1CC[C@@H]2O (stereo partly shown)
Result: 11.1
